Format: physicochemical
Condition: lipid nanoparticle of the ionizable lipid with mRNA, Table 1
Readout Name: Encapsulated percentage (%)

[
  {
    "Molecule": "CCCCCCCCC(CCCCCCCC)OC(=O)CCCCCCCN(CCCO)CCCCCCCC(=O)OC(CCCCCCCC)CCCCCCCC",
    "Result Number": 90.11
  },
  {
    "Molecule": "CCCCCCOCC(COCCCCCC)OC(=O)CCCCCCCN(CCCO)CCCCCCCCCCCC(=O)OC(COCC)COCC",
    "Result Number": 83.56
  },
  {
    "Molecule": "CCCCCCCCCCCOC(=O)CCCCCN(CCO)CCCCCCCC(=O)OCC(COCCCCCC)(COCCCCCC)COCCCCCC",
    "Result Number": 97.41
  },
  {
    "Molecule": "CCCCCCCCC(CCCCCCCC)OC(=O)CCCCCCCN(CCO)CCCCCCCC(=O)OC(COCCCCCC)COCCCCCC",
    "Result Number": 95.51
  },
  {
    "Molecule": "CCCCCCOCC(COCCCCCC)OC(=O)CCCCCCCN(CCCCCCCC(=O)OC(COCCCCCC)COCCCCCC)CCCNc1c(NCCCNc2c(NC)c(=O)c2=O)c(=O)c1=O",
    "Result Number": 89.98
  },
  {
    "Molecule": "CCCCCCOCC(COCCCCCC)OC(=O)CCCCCCCN(CCCCCCCC(=O)OC(COCCCCCC)COCCCCCC)CCCNc1c(NCCCNc2c(NCCCN(CCCCCCCC(=O)OC(COCCCCCC)COCCCCCC)CCCCCCCC(=O)OC(COCCCCCC)COCCCCCC)c(=O)c2=O)c(=O)c1=O",
    "Result Number": 98.14
  },
  {
    "Molecule": "CCCCC/C=C/C/C=C/CCCCCCCCN(CCO)CCCCCC(=O)OCCCCCCCCCCC",
    "Result Number": 93.35
  },
  {
    "Molecule": "CCCCCCCCCCCOC(=O)CCCCCN(CCO)CCCCCC(=O)OCCCCCCCCCCC [A3, reference compound]",
    "Result Number": 81.47
  },
  {
    "Molecule": "CCCCCCCCCCCOC(=O)CCCCCN(CCCCCCCC(=O)OC(COCCCCCC)COCCCCCC)CCCNc1c(NC)c(=O)c1=O",
    "Result Number": 96.69
  },
  {
    "Molecule": "CCCCC/C=C\\C/C=C\\CCCCCCCCC(CCCCCCCC/C=C\\C/C=C\\CCCCC)OC(=O)CCCN(C)C [MC3, reference compound]",
    "Result Number": 92.00
  },
  {
    "Molecule": "CCCCCCCCCCCOC(=O)CCCCCN(CCCO)CCCCCC(=O)OCCCCCCCCCCC",
    "Result Number": 87.09
  },
  {
    "Molecule": "CCCCCCCCC(CCCCCCCC)OC(=O)CCCCCCCN(CCO)CCCCCCCC(=O)OC(CCCCCCCC)CCCCCCCC [A2, reference compound]",
    "Result Number": 87.86
  },
  {
    "Molecule": "CCCCC/C=C/C/C=C/CCCCCCCCN(CCO)CCCCCCCC(=O)OC(CCCCCCCC)CCCCCCCC [A8, reference compound]",
    "Result Number": 76.10
  },
  {
    "Molecule": "CCCCC/C=C/C/C=C/CCCCCCCCN(CCO)CCCCCCCC(=O)OCC(COCCCCCC)(COCCCCCC)COCCCCCC",
    "Result Number": 97.09
  }
]
